- System: MIA PaCa-2
- method-summary: Antiproliferative activity against human MIAPaCa2 cells harboring KRAS G12C point mutant assessed as cell growth inhibition after 72 hrs by Celltiter-Glo luminescent cell viability assay
- Type: functional, cell-based
- assay-conditions: MIA PaCa-2, 72 h
measurement-name: IC50 (nM)

>>> df
                               given_smiles  measurement_name  observed
0  C=CC(=O)N1CCN(c2nc(=O)n(-c3c(C)ncnc3C(C)C)c3nc(-c4c(O)cccc4F)c(F)cc23)[C@@H](C)C1              IC50         9

(1) C=CC(=O)N1CCN(c2nc(=O)n(-c3ccccc3C(C)C)c3nc(-c4ccccc4O)c(Cl)cc23)[C@@H](C)C1
(2) C=CC(=O)N1CCN(c2nc(=O)n(-c3ccccc3C(C)C)c3cc(-c4ccccc4F)c(Cl)cc23)[C@@H](C)C1
(3) C=CC(=O)N1CCN(c2nc(=O)n(-c3ccccc3C(C)C)c3cc(-c4ccccc4C(F)(F)F)c(Cl)cc23)[C@@H](C)C1
Query string: // ranking: key=IC50, reverse=True // rank by listing labels in the order requested
Result string: 3, 1, 2
(3: 40 nM, 1: 13 nM, 2: 6 nM)

----------
- method-summary: Protein binding in plasma of human assessed as unbound fraction at […] by ultracentrifugation
- Assay type: ADME, cell-free
measurement-name: fraction unbound at […]
I only need the number, thanks.

Query string: Would you kindly share the measured fraction unbound at […] for "C=CC(=O)N1CCN(c2nc(=O)n(-c3c(C)ccnc3C(C)C)c3nc(-c4c(O)cccc4F)c(F)cc23)[C@@H](C)C1" ?
Result string: 0.09

----------
- method-summary: Half life in Beagle dog at 1 mg/kg, iv or 10 mg/kg, po
- Assay type: ADME, organism-based, Canis lupus familiaris
- assay-conditions: in vivo
measurement-name: half-life (min)
Just the number in min, nothing appended.

Query string: Would you kindly share the measured half-life for C=CC(=O)N1CCN(c2nc(=O)n(-c3c(C)ccnc3C(C)C)c3nc(-c4c(O)cccc4F)c(F)cc23)[C@@H](C)C1 [SOTORASIB] ?
Result string: 24

----------
- method-summary: Solubility of compound in PBS buffer at pH 7.4 incubated for 48 to 72 hrs under shaking conditions by LCMS analysis
- Type: physicochemical
measurement-name: solubility thermodynamic (µM)

                                   compound          measurement_name  unit_text  observed
0  C=CC(=O)N1CCN(c2nc(=O)n(-c3ccccc3C(C)C)c3nc(-c4c(O)cccc4F)c(Cl)cc23)[C@@H](C)C1 (stereo in doubt; (R)-18)  solubility thermodynamic         µM         9
1  C=CC(=O)N1CCN(c2nc(=O)n(-c3c(C)cccc3C(C)C)c3nc(-c4c(O)cccc4F)c(Cl)cc23)[C@@H](C)C1  solubility thermodynamic         µM        12

(I) C=CC(=O)N1CCN(c2nc(=O)n(-c3c(C)ccnc3C(C)C)c3nc(-c4c(O)cccc4F)c(F)cc23)[C@@H](C)C1 [SOTORASIB]
(II) C=CC(=O)N1CCN(c2nc(=O)n(-c3ccccc3C(C)C)c3nc(-c4ccccc4O)c(Cl)cc23)[C@@H](C)C1
Query string: So which one has the bigger solubility thermodynamic here, I or II ? Could you answer with the label of the item you picked?
Result string: I
(I: 423 µM, II: 88 µM)

----------
- method-summary: Intrinsic clearance in human cryopreserved hepatocytes assessed per 10^6 cells at 0.5 uM measured upto 60 mins by LCMS analysis
- Assay type: ADME, cell-based, Hepatocyte
- assay-conditions: read-out: CLH
measurement-name: hepatocyte CLint at 0.5 µM (µL/min/1e6 cells)

Solved entries (count: 4):
                               given_smiles  observed
0  C=CC(=O)N1CCN(c2nc(=O)n(-c3c(C)cccc3C(C)C)c3nc(-c4c(O)cccc4F)c(Cl)cc23)[C@@H](C)C1        30
1  C=CC(=O)N1CCN(c2nc(=O)n(-c3c(C)ncnc3C(C)C)c3nc(-c4c(O)cccc4F)c(F)cc23)[C@@H](C)C1         5
2  C=CC(=O)N1CCN(c2nc(=O)n(-c3ccccc3C(C)C)c3cc(-c4ccccc4F)c(Cl)cc23)[C@@H](C)C1       166
3  C=CC(=O)N1CCN(c2nc(=O)n(-c3ccccc3C(C)C)c3cc(-c4ccccc4F)c(Cl)cc23)CC1       197

(a) C=CC(=O)N1CCN(c2nc(=O)n(-c3ccccc3C(C)C)c3nc(-c4ccccc4Cl)c(Cl)cc23)[C@@H](C)C1
(b) C=CC(=O)N1CCN(c2nc(=O)n(-c3c(C)cccc3C(C)C)c3nc(-c4c(O)cccc4F)c(F)cc23)[C@@H](C)C1
Query string: Select the item whose hepatocyte CLint at 0.5 µM value is smaller, choosing between a and b . Could you answer with the label of the item you picked?
Result string: b

----------
- System: MIA PaCa-2
- method-summary: Antiproliferative activity against human MIAPaCa2 cells harboring KRAS G12C point mutant assessed as cell growth inhibition after 72 hrs by Celltiter-Glo luminescent cell viability assay
- Format: functional, cell-based
- assay-conditions: MIA PaCa-2, 72 h
pIC50: −log10 of the molar value.
measurement-name: pIC50

(a) C=CC(=O)N1CCN(c2nc(=O)n(-c3c(C)cccc3C(C)C)c3nc(-c4c(O)cccc4F)c(F)cc23)[C@@H](C)C1
(b) C=CC(=O)N1CCN(c2nc(=O)n(-c3ccccc3C(C)C)c3cc(-c4ccccc4F)c(Cl)cc23)CC1
(c) C=CC(=O)N1CCN(c2nc(=O)n(-c3c(C)ccnc3C(C)C)c3nc(-c4c(O)cccc4F)c(F)cc23)[C@@H](C)C1
(d) C=CC(=O)N1CCN(c2nc(=O)n(-c3c(C)ncnc3C(C)C)c3nc(-c4c(O)cccc4F)c(Cl)cc23)[C@@H](C)C1
(e) C=CC(=O)N1CCN(c2nc(=O)n(-c3c(C)ccnc3C(C)C)c3nc(-c4c(O)cccc4F)c(Cl)cc23)[C@@H](C)C1
Query string: Ascending sort, pIC50. // rank by listing labels in the order requested
Result string: b, a, c, d, e

----------
- Tested on: A549
- method-summary: Antiproliferative activity against human A549 cells harboring KRAS G12S point mutant assessed as cell growth inhibition after 72 hrs by Celltiter-Glo luminescent cell viability assay
- Type: functional, cell-based
- assay-conditions: A549, 72 h
measurement-name: IC50 (µM)

Solved entries (count: 3):
>>> df
                                   compound  observed
0  C=CC(=O)N1CCN(c2nc(=O)n(-c3ccccc3C(C)C)c3nc(-c4c(O)cccc4F)c(Cl)cc23)[C@@H](C)C1 (stereo in doubt; (R)-18)      14.2
1  C=CC(=O)N1CCN(c2nc(=O)n(-c3ccccc3C(C)C)c3cc(-c4ccccc4F)c(Cl)cc23)[C@@H](C)C1       5.8
2  C=CC(=O)N1CCN(c2nc(=O)n(-c3ccccc3C(C)C)c3cc(-c4c(O)cccc4F)c(Cl)cc23)CC1      10.3

(I) C=CC(=O)N1CCN(c2nc(=O)n(-c3ccccc3C(C)C)c3nc(-c4ccccc4F)c(Cl)cc23)[C@@H](C)C1
(II) C=CC(=O)N1CCN(c2nc(=O)n(-c3ccccc3C(C)C)c3cc(-c4cc(O)cc5ccccc45)c(Cl)cc23)CC1
Query string: So which one has the bigger IC50 here, I or II ? Could you answer with the label of the item you picked?
Result string: I

----------
- method-summary: Oral bioavailability in BALB/c mouse at 10 mg/kg
- Format: ADME, organism-based
- assay-conditions: in vivo
measurement-name: bioavailability

Solved entries (count: 5):
>>> df
                                   compound  measurement_name   observed
0  C=CC(=O)N1CCN(c2nc(=O)n(-c3c(C)ccnc3C(C)C)c3nc(-c4c(O)cccc4F)c(Cl)cc23)[C@@H](C)C1   bioavailability     < 0.5%
1  C=CC(=O)N1CCN(c2nc(=O)n(-c3ccccc3C(C)C)c3cc(-c4c(C)ccc5[nH]ncc45)c(Cl)cc23)CC1   bioavailability     < 0.5%
2  C=CC(=O)N1CCN(c2nc(=O)n(-c3c(C)ccnc3C(C)C)c3nc(-c4c(O)cccc4F)c(F)cc23)[C@@H](C)C1 [SOTORASIB]   bioavailability  22 to 40%
3  C=CC(=O)N1CCN(c2nc(=O)n(-c3c(C)cccc3C(C)C)c3nc(-c4c(O)cccc4F)c(F)cc23)[C@@H](C)C1   bioavailability     < 0.5%
4  C=CC(=O)N1CCN(c2nc(=O)n(-c3c(C)ncnc3C(C)C)c3nc(-c4c(O)cccc4F)c(Cl)cc23)[C@@H](C)C1   bioavailability     < 0.5%

Query string: Would you kindly share the measured bioavailability for "C=CC(=O)N1CCN(c2nc(=O)n(-c3c(C(C)C)ccnc3C)c3nc(-c4c(O)cccc4F)c(Cl)cc23)[C@@H](C)C1" ?
Result string: < 0.5%

Query string: Would you kindly share the measured bioavailability for "C=CC(=O)N1CCN(c2nc(=O)n(-c3ccccc3C(C)C)c3cc(-c4c(O)cccc4F)c(Cl)cc23)CC1" ?
Result string: < 0.5%

Query string: Would you kindly share the measured bioavailability for "C=CC(=O)N1CCN(c2nc(=O)n(-c3c(C)cccc3C(C)C)c3nc(-c4c(O)cccc4F)c(Cl)cc23)[C@@H](C)C1" ?
Result string: 4 to 21%

# credit: ChEMBL document CHEMBL4354832
